# TARGET OR TEST SYSTEM: histone deacetylase (E. tenella lysate)
# METHOD DESCRIPTION: Competitive binding assay with 3H-N-desmethoxyapicidin, E. tenella S100 lysate
# CONDITION INFO: 3H-N-desmethoxyapicidin ligand
pIC50: −log10 of the molar value.
EXPERIMENTAL READOUT: pIC50

Request: Entry CC(/C=C/C(=O)O)=C\[C@@H](C)C(=O)c1ccc(N(C)C)cc1 : reported pIC50 = ?
Response: < 6.00
